Target: T1, human IL1RAP (human, UniProt Q9NPH3 21-367, limits assumed, biotinylated in the ELISA screens (site not stated))
T1 construct: also called huIL1RAP; IL1RAP antigen
T1 sequence (looked up): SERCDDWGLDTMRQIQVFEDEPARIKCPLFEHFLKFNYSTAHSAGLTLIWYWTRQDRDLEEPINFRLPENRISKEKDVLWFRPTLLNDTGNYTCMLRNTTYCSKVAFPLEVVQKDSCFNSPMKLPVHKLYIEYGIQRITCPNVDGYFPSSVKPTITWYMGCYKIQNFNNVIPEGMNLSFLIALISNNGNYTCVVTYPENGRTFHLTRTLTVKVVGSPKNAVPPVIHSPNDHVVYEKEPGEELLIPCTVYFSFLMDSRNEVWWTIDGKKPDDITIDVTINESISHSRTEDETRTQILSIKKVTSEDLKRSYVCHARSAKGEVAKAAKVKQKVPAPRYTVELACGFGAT
Test: ELISA of point mutant IgG (heavy chain mutant with the parental chimeric light chain, CHO-E expression), one bar each, concentration not given

BINDER | binding result
GO11 chimeric IgG, heavy chain point mutant VH-I28T (antibody, V domains shown, Heavy chain mutant paired with the parental chimeric light chain; IgG backbone, expressed in CHO-E) VH: QVHLQQSGPELVRPGTSVKISCEASGYTFLTYWMNWVKQRPGQGLEWIGQIFPASDSTYYNEMFKDKARFTVDKSSSTAYMQFSSLTSEDTAVYFCARSGPYSYYAGGYALDYWGQGTSVTVSS VL: DIQMTQSPASLSASVGETVTITCRTSENINSYLAWYQQKQGKSPQLLVHYAKTLAEGVPSRFSGSGSGTQFSLKINSLKPEDFGSYYCQHHYGTSLTFGAGTKLELK | binds
